assay: Toxicity liver stage against HepG2, at 10uM; type: cell-based; parameters: test concentration 10 uM, cell line HepG2-A16-CD81EGFP; details: human, HepG2-A16-CD81EGFP cells; read-out: INHIBITION
Kindly supply the reported cytotoxicity at 10 µM values for the records listed here.
Give your result as the value with the unit written after it.

Dear colleague, I am looking for the recorded cytotoxicity at 10 µM of the following compound: O=C(NCC1(O)CCC1)c1c(O)cc(Cl)cc1Cl
0.924%

// query: O=C(O)c1ccnc(-c2ccnc(NCCc3ccc(F)cc3)n2)c1
1.74%

// query: O=C(c1nc(COc2ccc3c(c2)OCO3)no1)N1CCCC1
10.3%

// query: Cn1cc(C2CCCN2C(=O)CCc2cnn(-c3ccccc3)c2)cn1 (stereo not given)
-6.88%

// query: CN(CCC(O)c1ccccc1)c1cc(N2CCOCC2)ncn1 (stereo not given)
-148%

// query: COc1cccc(C(C(=O)O)N(C)Cc2ccc(C)o2)c1 (stereo not given)
-1.35%

// query: COc1cccnc1NC(=O)c1ccc(COCC(F)(F)F)cc1
-2.4%

// query: O=C(NCC1(O)CCc2ccccc2C1)c1cccs1 (stereo not given)
13.8%

// query: Cc1ncccc1C(=O)NC1CC(=O)N(CC(F)(F)F)C1 (stereo not given)
1.2%

// query: CCOc1cccc2c1OCC(=O)N(c1ccc3c(c1)OCO3)C2
17.1%

// query: CCSc1cc(C(=O)N(Cc2cnn(C)c2)C(C)C)ccn1
4.64%

// query: COCC(C)(C)NC(=O)CC(c1ccccc1)C(F)(F)F (stereo not given)
-50.1%

// query: COc1cccc(OCC(=O)NS(=O)(=O)c2cccnc2)c1
-12.1%

// query: CC(C)Oc1ccccc1C(=O)NCCc1nncn1C
-7.71%

// query: Brc1ccc(NCc2ccc(Cn3ccnc3)cc2)nc1
21.8%

// query: c1nc(CSc2nnc(C3CC3)s2)cs1
-5.54%

// query: Cc1nn(C)c(Cl)c1C1CCCN1CC(=O)NCc1ccco1 (stereo not given)
1.48%

// query: OC[C@H]1CN(C2Cc3ccccc3C2)C[C@H]1CN1CCC(O)CC1
0.0255%

// query: COCCN1CCN(C=C2NN=C(c3occc3C)O2)CC1
-49.4%

// query: N#CCCN(Cc1ccco1)C(=O)COC1CCCCC1
6.35%

// query: CN(Cc1ccc(F)cc1F)CC(C)(CO)CO
-2.52%

// query: O=C(NCc1nncn1C1CC1)c1ccccc1Oc1cccnc1
-4.97%

// query: CCN(CC)CCn1ccnc1-c1cccc(C#N)c1
-5%

// query: CN1CCN(C(=O)c2n[nH]c3c2CN(C2CCOCC2)CC3)CC1
3.41%

// query: Cc1nc(N2CCN(C)CC2)ncc1C(=O)N1CCC(O)(CO)CC1
-0.395%
